pIC50: −log10 of the molar value.
Recorded pIC50 for compounds tested on UniProt:Q04912, drawn from a number of studies.
Result Type: pIC50

• Nc1nccc(Oc2ccc(NC(=O)c3cnn(-c4cccnc4)c3C(F)(F)F)cc2F)c1Cl = 6.30 to 7.30
• CCn1c(=O)[nH]c2nccc(Oc3ccc(NC(=O)c4ncn(-c5ccccc5)c4C(F)(F)F)cc3F)c21 = > 7.30
• Nc1nccc(Oc2ccc(NC(=O)c3cnn(-c4ncc(F)cc4F)c3C(F)(F)F)cc2F)c1Cl = > 7.30
• COc1ccn(-c2ccc(F)cc2)c(=O)c1C(=O)Nc1ccc(-c2ccc(O)c(-c3ccnc(N)n3)c2)c(F)c1 = 6.88
• CC(C)n1c(=O)[nH]c2nccc(Oc3ccc(NC(=O)c4cnn(C5CCCCC5)c4C(F)(F)F)cc3F)c21 = > 7.30
• COc1cccnc1-n1ncc(C(=O)Nc2ccc(Oc3ccnc(N)c3Cl)c(F)c2)c1C(F)(F)F = 6.30 to 7.30
• Nc1nccc(Oc2ccc(NC(=O)c3cnn(-c4ncccc4Cl)c3C(F)(F)F)cc2F)c1Cl = > 7.30
• CC(C)n1c(=O)[nH]c2nccc(Oc3ccc(NC(=O)c4ncn(-c5ccccc5)c4C(F)(F)F)cc3F)c21 = > 7.30
• CC(C)n1c(=O)[nH]c2nccc(Oc3ccc(NC(=O)c4cnn(-c5ncccc5Br)c4C(F)(F)F)cc3F)c21 = > 7.30
• CC(C)(O)C#Cc1c(Oc2c(F)cc(NC(=O)c3cnn(-c4ncccc4F)c3C(F)(F)F)cc2F)ccnc1N = > 7.30
